- assay explanation: chemical genetic growth profiling, strain panel (AID 1159580);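 further: tested at 20 µM; growth read once vehicle control cultures reached saturation at 30 °C; lower values mean less growth of the strain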
- setup conditions: S. cerevisiae deletion strains, growth OD, locus YPR119W, strain clb2
The whole screen tested about 5,500 compounds, of which about 2,000 (36%) were called active. Inconclusive results (about 18%) are left out. No stated cut-off is given here; in the data, active means normalized growth mostly below about 0.91 (no sharp cut-off); inconclusive means no clear call, values can overlap the other calls; inactive means mostly above about 0.92. This is one part of the list.
// allowed return values: active, inactive

Field: example entries. Status: answers known.
{"compound": "CCCCCC(C)N (configuration not stated)", "qualitative label": "inactive"}
{"compound": "C=CC(C)(C)c1c2c(c(O)c3c(=O)c4ccc(O)c(O)c4oc13)C=CC(C)(C)O2", "qualitative label": "inactive"}
{"compound": "CC(C(=O)O)c1ccc2c(c1)[nH]c1ccc(Cl)cc12 (configuration not stated)", "qualitative label": "inactive"}
{"compound": "C=CCc1ccc2c(c1)OCO2", "qualitative label": "inactive"}
{"compound": "COc1cc(O)c(C(=O)c2ccccc2)cc1O", "qualitative label": "inactive"}

Answer briefly: the call reported for "COc1ccc2c(c1)OC[C@@H](Cc1ccc(OC)c(OC)c1)[C@H]2O" in this assay.
inactive

Same read-out for COC1C(O)C(O)C(O)[C@@H](O)C1O (some centres not stated) ?
inactive
